B1: H2-Kb / B7 (parent)
chain 1: GQQVQQSPTSLVLQEGENAELQCNFSTSLNSMQWFYQRPGGSLVSVFYNPSGTKQSGRLTSTTVIKERRSSLHISSSQITDSGTYLCAMERDMGYKLTFGTGTSLLVDP
chain 2: EAAVTQSPRNKVAVTGGKVTLSCNQTNNHNNMYWYRQDTGHGLRLIHYSYGAGSTEKGDIPDGYKASRPSQENFSLILELATPSQTSVYFCASGDPGDQDTQYFGPGTRLLVL
chain 3: not shown
chain 4: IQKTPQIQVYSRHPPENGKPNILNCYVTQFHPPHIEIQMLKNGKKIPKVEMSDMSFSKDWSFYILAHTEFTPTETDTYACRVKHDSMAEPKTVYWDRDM
chain 5: SIINFEKL

Variants of: B1
PROTOCOL NOTES: % of reporter cells activated (NFAT-GFP), raw; also: test concentration or dose not given here
EXPERIMENTAL PARAMETERS: with B7; scale: % of reporter cells activated
READOUT NAME: ratio to parent

VARIANT NOTATION	ratio to parent
chain 5 I2A	1.58
chain 5 N4F	1.26
chain 5 I2S	1.45

I: chain 5 K7S
II: chain 5 L8S
Kindly compare I with II and tell me which has the lower ratio to parent figure. Mark your selection by writing its label.
II

P: chain 5 I3M
Q: chain 5 S1N
R: chain 5 F5C
Order the items by recorded ratio to parent; the first position goes to the largest value. Please reply with the labels ordered as requested. Many thanks.
R, P, Q
(R: 1.97, P: 1.29, Q: 0.862)
